System: TK-10 renal
Experiment: NCI-60 one-dose screen, 48 h (100 = growth as untreated, 0 = no growth, -100 = all killed)
Details: 10 µM unless noted
Compounds without any hit were thinned out: in the full panel of roughly 83,000, 20% have a hit.
Form field: growth (one value per entry).
MEASUREMENT_LABEL: growth (%)

COC(=O)c1nc(-c2ccc(C)cc2)oc1S(=O)(=O)c1cccc(OC)c1 = 64.8
COc1ccccc1CNc1c2ccccc2nc2ccccc12 = 55.5
CSc1nc2ccccc2cc1/C=[N+](\[O-])c1ccccc1 = 98
C=C(C)[C@@H]1CC[C@]2(CO)CC[C@]3(C)[C@H](CC[C@@H]4[C@@]5(C)CC[C@H](NCO)C(C)(C)[C@@H]5CC[C@]43C)[C@@H]12 = -64.8
COc1ccc2c(c1)c(-c1nc(-c3c[nH]c4ccncc34)cs1)cn2C = 43.4
COc1ccc(/C=N/NC(=O)c2ccc(-n3cc(-c4ccccc4)nn3)cc2)cc1OC = 113
O=C1/C(=C/c2cn(-c3ccccc3)nc2-c2ccccc2)SC(=S)N1C1CCCCC1 = 117
